method-summary: Clearance in Sprague-Dawley rat at 2 mg/kg, iv
Assay type: ADME, organism-based
Design: dose 2 mg/kg, route intravenous
condition-context: in vivo
endpoint: clearance (mL/min/kg)
Please reply with the bare figure in mL/min/kg and do not write the unit itself.

Endpoint output: clearance of Nc1ccc(S(=O)(=O)N2CCN(c3ncc(C(O)(C(F)(F)F)C(F)(F)F)cc3-c3cccnc3)CC2)cn1 . Value?
25

Do the same for Cn1cc(-c2cc(C(O)(C(F)(F)F)C(F)(F)F)cnc2N2CCN(S(=O)(=O)c3ccc(N)nc3)CC2)cn1 please
33.3

* * *

method-summary: Intrinsic clearance in rat liver microsomes at 1 uM after 30 mins in presence of NADPH
Type: ADME
condition-context: read-out: CLH
Classification field: true = microsomal CLint at 1 µM at or over 50 µL/min/mg; false = microsomal CLint at 1 µM under 50 µL/min/mg.

Confirm if microsomal CLint at 1 µM reported for the compound Nc1ccc(S(=O)(=O)N2CCN(c3ncc(C(O)(C(F)(F)F)C(F)(F)F)cc3-c3ccc(F)cc3)CC2)cn1 is 50 µL/min/mg or above.
false

Do the same for COc1cncc(-c2cc(C(O)(C(F)(F)F)C(F)(F)F)cnc2N2CCN(S(=O)(=O)c3ccc(N)nc3)CC2)c1 please
true

Do the same for Nc1ccc(S(=O)(=O)N2CCN(c3ncc(C(O)(C(F)(F)F)C(F)(F)F)cc3-c3ccc4scnc4c3)CC2)cn1 please
true

Do the same for CC(C)(O)C#Cc1cc(C(O)(C(F)(F)F)C(F)(F)F)cnc1N1CCN(S(=O)(=O)c2ccc(N)nc2)CC1 please
false

Do the same for CN1C(=O)Cc2cc(-c3cc(C(O)(C(F)(F)F)C(F)(F)F)cnc3N3CCN(S(=O)(=O)c4ccc(N)nc4)CC3)ccc21 please
true

Do the same for Nc1ccc(S(=O)(=O)N2CCN(c3ncc(C(O)(C(F)(F)F)C(F)(F)F)cc3-c3cnccc3F)CC2)cn1 please
false

Do the same for COc1ccc(-c2cc(C(O)(C(F)(F)F)C(F)(F)F)cnc2N2CCN(S(=O)(=O)c3ccc(N)nc3)CC2)cn1 please
true

Do the same for Nc1ccc(S(=O)(=O)N2CCN(c3ncc(C(O)(C(F)(F)F)C(F)(F)F)cc3-c3cccnc3)CC2)cn1 please
false

Do the same for Nc1ccc(S(=O)(=O)N2CCN(c3ncc(C(O)(C(F)(F)F)C(F)(F)F)cc3-c3cncc(F)c3)CC2)cn1 please
false

Do the same for Cc1c(-c2cc(C(O)(C(F)(F)F)C(F)(F)F)cnc2N2CCN(S(=O)(=O)c3ccc(N)nc3)CC2)cnn1C please
true

Do the same for Nc1ccc(S(=O)(=O)N2CCN(c3ncc(C(O)(C(F)(F)F)C(F)(F)F)cc3C3CC3)CC2)cn1 please
false

Do the same for Nc1ccc(S(=O)(=O)N2CCN(c3ncc(C(O)(C(F)(F)F)C(F)(F)F)cc3-c3cc[nH]n3)CC2)cn1 please
false

Do the same for Nc1ccc(S(=O)(=O)N2CCN(c3ncc(C(O)(C(F)(F)F)C(F)(F)F)cc3C#CC3CC3)CC2)cn1 please
true

Do the same for Nc1ccc(S(=O)(=O)N2CCN(c3ccc(C(O)(C(F)(F)F)C(F)(F)F)cn3)CC2)cn1 please
false

Do the same for Cn1cc(-c2cc(C(O)(C(F)(F)F)C(F)(F)F)cnc2N2CCN(S(=O)(=O)c3ccc(N)nc3)CC2)c(C(F)(F)F)n1 please
true

* * *

Hi there, I'd appreciate the recorded microsomal CLint at 1 µM for every entry that follows.
method-summary: Intrinsic clearance in human liver microsomes at 1 uM after 30 mins in presence of NADPH
Assay type: ADME
condition-context: read-out: CLH
Please reply with the bare figure in µL/min/mg and do not write the unit itself.

Endpoint output: microsomal CLint at 1 µM of COCC#Cc1cc(C(O)(C(F)(F)F)C(F)(F)F)cnc1N1CCN(S(=O)(=O)c2ccc(N)nc2)CC1 . Value?
15

Do the same for CS(=O)(=O)c1ccc(-c2cc(C(O)(C(F)(F)F)C(F)(F)F)cnc2N2CCN(S(=O)(=O)c3ccc(N)nc3)CC2)cc1 please
32

* * *

method-summary: Intrinsic clearance in rat liver microsomes at 1 uM after 30 mins in presence of NADPH
Type: ADME
condition-context: read-out: CLH
endpoint: microsomal CLint at 1 µM

Endpoint output: microsomal CLint at 1 µM of COCC#Cc1cc(C(O)(C(F)(F)F)C(F)(F)F)cnc1N1CCN(S(=O)(=O)c2ccc(N)nc2)CC1 . Value?
399 µL/min/mg

Do the same for CS(=O)(=O)Nc1cccc(-c2cc(C(O)(C(F)(F)F)C(F)(F)F)cnc2N2CCN(S(=O)(=O)c3ccc(N)nc3)CC2)c1 please
81 µL/min/mg

Do the same for Nc1ccc(S(=O)(=O)N2CCN(c3ncc(C(O)(C(F)(F)F)C(F)(F)F)cc3-c3ccoc3)CC2)cn1 please
57 µL/min/mg

Do the same for COc1cc(C(O)(C(F)(F)F)C(F)(F)F)cnc1N1CCN(S(=O)(=O)c2ccc(N)nc2)CC1 please
< 14 µL/min/mg

Do the same for CC(C)(C)n1cc(-c2cc(C(O)(C(F)(F)F)C(F)(F)F)cnc2N2CCN(S(=O)(=O)c3ccc(N)nc3)CC2)cn1 please
459 µL/min/mg

Do the same for Nc1ccc(S(=O)(=O)N2CCN(c3ncc(C(O)(C(F)(F)F)C(F)(F)F)cc3-c3cc4ccccc4[nH]3)CC2)cn1 please
146 µL/min/mg

Do the same for Cc1csc(-c2cc(C(O)(C(F)(F)F)C(F)(F)F)cnc2N2CCN(S(=O)(=O)c3ccc(N)nc3)CC2)c1 please
399 µL/min/mg

Do the same for Cc1ccc(-c2cc(C(O)(C(F)(F)F)C(F)(F)F)cnc2N2CCN(S(=O)(=O)c3ccc(N)nc3)CC2)cn1 please
182 µL/min/mg

Do the same for Nc1ccc(S(=O)(=O)N2CCN(c3ncc(C(O)(C(F)(F)F)C(F)(F)F)cc3Br)CC2)cn1 please
32 µL/min/mg

Do the same for Nc1ccc(S(=O)(=O)N2CCN(c3ncc(C(O)(C(F)(F)F)C(F)(F)F)cc3-c3ccncc3)CC2)cn1 please
31 µL/min/mg

Do the same for Nc1ccc(S(=O)(=O)N2CCN(c3ncc(C(O)(C(F)(F)F)C(F)(F)F)cc3-c3cc4ccccc4s3)CC2)cn1 please
315 µL/min/mg

Do the same for Nc1ccc(S(=O)(=O)N2CCN(c3ncc(C(O)(C(F)(F)F)C(F)(F)F)cc3Cl)CC2)cn1 please
26 µL/min/mg

Do the same for Nc1ccc(S(=O)(=O)N2CCN(c3ncc(C(O)(C(F)(F)F)C(F)(F)F)cc3-c3ccc4c(c3)CC(=O)N4)CC2)cn1 please
119 µL/min/mg

Do the same for CC(C)n1cc(-c2cc(C(O)(C(F)(F)F)C(F)(F)F)cnc2N2CCN(S(=O)(=O)c3ccc(N)nc3)CC2)cn1 please
198 µL/min/mg

Do the same for Nc1ccc(S(=O)(=O)N2CCN(c3ncc(C(O)(C(F)(F)F)C(F)(F)F)cc3-c3ccc4sccc4c3)CC2)cn1 please
487 µL/min/mg

Do the same for Nc1ccc(S(=O)(=O)N2CCN(c3ncc(C(O)(C(F)(F)F)C(F)(F)F)cc3-c3cccc(F)c3)CC2)cn1 please
52 µL/min/mg

* * *

method-summary: Intrinsic clearance in human liver microsomes at 1 uM after 30 mins in presence of NADPH
Type: ADME
condition-context: read-out: CLH
Sorting guide: entries reporting microsomal CLint at 1 µM beneath 30 µL/min/mg go in the t pile, the rest go in the f pile.

For this compound, is microsomal CLint at 1 µM lower than 30 µL/min/mg? Nc1ccc(S(=O)(=O)N2CCN(c3ncc(C(O)(C(F)(F)F)C(F)(F)F)cc3-c3ccc4c(c3)CC(=O)N4)CC2)cn1
t

Do the same for CC(C)(O)C#Cc1cc(C(O)(C(F)(F)F)C(F)(F)F)cnc1N1CCN(S(=O)(=O)c2ccc(N)nc2)CC1 please
t

Do the same for Cc1csc(-c2cc(C(O)(C(F)(F)F)C(F)(F)F)cnc2N2CCN(S(=O)(=O)c3ccc(N)nc3)CC2)c1 please
t

Do the same for Nc1ccc(S(=O)(=O)N2CCN(c3ncc(C(O)(C(F)(F)F)C(F)(F)F)cc3-c3cnccc3F)CC2)cn1 please
t

Do the same for Cn1cc(-c2cc(C(O)(C(F)(F)F)C(F)(F)F)cnc2N2CCN(S(=O)(=O)c3ccc(N)nc3)CC2)c(C(F)(F)F)n1 please
f

Do the same for CN1C(=O)Cc2cc(-c3cc(C(O)(C(F)(F)F)C(F)(F)F)cnc3N3CCN(S(=O)(=O)c4ccc(N)nc4)CC3)ccc21 please
t

Do the same for Cc1cncc(-c2cc(C(O)(C(F)(F)F)C(F)(F)F)cnc2N2CCN(S(=O)(=O)c3ccc(N)nc3)CC2)c1 please
f

* * *

method-summary: Mean residence time in Sprague-Dawley rat at 2 mg/kg, iv
Format: ADME, organism-based
Parameters: dose 2 mg/kg, route intravenous
condition-context: in vivo
Hi there, I'd appreciate the recorded MRT for every entry that follows.
Please reply with the bare figure in h and do not write the unit itself.

Endpoint output: MRT of Nc1ccc(S(=O)(=O)N2CCN(c3ncc(C(O)(C(F)(F)F)C(F)(F)F)cc3-c3cccnc3)CC2)cn1 . Value?
2.18

Do the same for Cn1cc(-c2cc(C(O)(C(F)(F)F)C(F)(F)F)cnc2N2CCN(S(=O)(=O)c3ccc(N)nc3)CC2)cn1 please
1.34
